Where do the numbers come from? From patent US10925971B2.

Listed here are molecules together with their documented ka.
# targetUnderTest: T1, dimeric human PRLR (hPRLR.mFc; SEQ ID NO:402) (Homo sapiens, UniProt P16471)
# T1 construct: dimeric (hPRLR.mFc)
# T1 sequence (P16471 with tags, fused parts or gaps): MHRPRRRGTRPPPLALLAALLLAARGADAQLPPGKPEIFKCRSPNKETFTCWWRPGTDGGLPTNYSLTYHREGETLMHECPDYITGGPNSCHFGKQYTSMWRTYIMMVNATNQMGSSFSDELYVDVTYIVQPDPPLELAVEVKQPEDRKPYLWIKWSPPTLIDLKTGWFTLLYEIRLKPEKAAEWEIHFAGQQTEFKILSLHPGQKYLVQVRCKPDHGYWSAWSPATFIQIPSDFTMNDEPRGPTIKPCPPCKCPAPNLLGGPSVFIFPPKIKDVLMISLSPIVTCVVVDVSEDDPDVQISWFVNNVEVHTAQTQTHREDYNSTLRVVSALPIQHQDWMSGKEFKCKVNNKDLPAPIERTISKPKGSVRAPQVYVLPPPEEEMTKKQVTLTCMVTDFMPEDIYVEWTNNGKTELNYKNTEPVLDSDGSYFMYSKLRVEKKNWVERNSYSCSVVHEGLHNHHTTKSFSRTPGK
# testName: Surface plasmon resonance (Biacore T200), antibody-capture format
# Type: binding
# conditionContext: 37° C., analyte hPRLR.mFc

- molecule: "H1H6795P: fully human anti-PRLR antibody, human IgG1 Fc; HCVR/LCVR SEQ ID NOs 162/170 (antibody, V domains shown) VH: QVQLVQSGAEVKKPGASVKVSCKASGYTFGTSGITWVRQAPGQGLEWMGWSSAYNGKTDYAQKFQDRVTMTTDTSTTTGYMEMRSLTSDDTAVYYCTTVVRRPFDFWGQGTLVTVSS VL: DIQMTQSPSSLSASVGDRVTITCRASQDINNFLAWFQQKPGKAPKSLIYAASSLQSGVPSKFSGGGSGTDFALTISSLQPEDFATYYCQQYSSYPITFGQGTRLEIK"
  resultUnits: "M/s"
  ka: "1.94e+06"
- molecule: "H1H6765P: fully human anti-PRLR antibody, human IgG1 Fc; HCVR/LCVR SEQ ID NOs 18/26 (antibody, V domains shown) VH: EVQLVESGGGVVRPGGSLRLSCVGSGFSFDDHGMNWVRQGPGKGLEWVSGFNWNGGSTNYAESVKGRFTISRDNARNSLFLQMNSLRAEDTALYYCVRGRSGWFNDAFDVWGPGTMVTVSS VL: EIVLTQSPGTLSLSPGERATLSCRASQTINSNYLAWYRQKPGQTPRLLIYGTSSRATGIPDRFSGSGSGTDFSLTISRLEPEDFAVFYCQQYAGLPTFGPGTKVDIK"
  resultUnits: "M/s"
  ka: 801000
- molecule: "H1H6960N: anti-PRLR antibody, human IgG1 Fc form of H2M6960N of Table 1; HCVR/LCVR SEQ ID NOs 322/330 (antibody, V domains shown, human IgG1 Fc) VH: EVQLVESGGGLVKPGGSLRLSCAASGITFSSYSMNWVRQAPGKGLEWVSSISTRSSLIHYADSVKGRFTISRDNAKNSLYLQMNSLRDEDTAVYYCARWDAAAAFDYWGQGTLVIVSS VL: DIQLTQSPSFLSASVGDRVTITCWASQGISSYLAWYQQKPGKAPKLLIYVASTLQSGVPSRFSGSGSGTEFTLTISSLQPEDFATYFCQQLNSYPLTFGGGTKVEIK"
  resultUnits: "M/s"
  ka: 294000
- molecule: "H1H6781P: fully human anti-PRLR antibody, human IgG1 Fc; HCVR/LCVR SEQ ID NOs 50/58 (antibody, V domains shown) VH: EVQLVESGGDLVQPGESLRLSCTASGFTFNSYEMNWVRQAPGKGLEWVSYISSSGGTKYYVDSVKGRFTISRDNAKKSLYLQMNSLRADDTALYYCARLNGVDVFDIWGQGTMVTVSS VL: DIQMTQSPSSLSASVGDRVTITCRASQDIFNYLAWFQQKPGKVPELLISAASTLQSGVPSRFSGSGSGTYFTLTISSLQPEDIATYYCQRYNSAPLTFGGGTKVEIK"
  resultUnits: "M/s"
  ka: 436000
- molecule: "H1H6800P: fully human anti-PRLR antibody, human IgG1 Fc; HCVR/LCVR SEQ ID NOs 194/202 (antibody, V domains shown) VH: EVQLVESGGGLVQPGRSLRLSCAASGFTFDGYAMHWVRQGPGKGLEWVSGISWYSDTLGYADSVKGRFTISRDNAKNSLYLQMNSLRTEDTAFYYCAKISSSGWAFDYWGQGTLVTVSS VL: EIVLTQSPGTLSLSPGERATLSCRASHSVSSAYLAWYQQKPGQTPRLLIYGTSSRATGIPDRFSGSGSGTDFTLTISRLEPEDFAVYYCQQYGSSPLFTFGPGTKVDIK"
  resultUnits: "M/s"
  ka: 644000
- molecule: "H1H6762P: fully human anti-PRLR antibody, human IgG1 Fc; HCVR/LCVR SEQ ID NOs 2/10 (antibody, V domains shown) VH: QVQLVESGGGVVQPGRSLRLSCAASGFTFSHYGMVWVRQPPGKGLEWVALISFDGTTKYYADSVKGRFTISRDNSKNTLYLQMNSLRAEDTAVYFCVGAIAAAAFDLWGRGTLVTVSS VL: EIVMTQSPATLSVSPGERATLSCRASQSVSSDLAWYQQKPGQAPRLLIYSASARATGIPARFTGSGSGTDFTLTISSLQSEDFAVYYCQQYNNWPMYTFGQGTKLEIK"
  resultUnits: "M/s"
  ka: 801000
